- Tested on: 301 cancer cell lines from different tumor types (OncoPanel; HD Biosciences)
- ASSAY SUMMARY: 2D cell viability inhibition assay (CellTiter-Glo) in cancer cell line panel
- Type: cell-based
- CONDITION SUMMARY: Homo sapiens, DMS-153, DMS153 cell line
pIC50: −log10 of the molar value.
ENDPOINT: pIC50

### Prompt Using the record for CC(C)c1ccc(N(C)c2ccc3c(c2)OCC[C@H]3CNc2cnccc2C(=O)O)cc1 [Compound 1] , report its pIC50.
### Response < 5.00

====

- System: 301 cancer cell lines from different tumor types (OncoPanel; HD Biosciences)
- ASSAY SUMMARY: 2D cell viability inhibition assay (CellTiter-Glo) in cancer cell line panel
- Type: cell-based
- CONDITION SUMMARY: Homo sapiens, DV-90, DV90 cell line
ENDPOINT: EC50 (nM)
Field: numeric (nM). Do not append units.

### Prompt Lab note: need EC50 for CC(C)c1ccc(N(C)c2ccc3c(c2)OCC[C@H]3CNc2cnccc2C(=O)O)cc1 [Compound 1] on 301 cancer cell lines from different tumor types (OncoPanel; HD Biosciences), anyone have it?
### Response 5.36
